- ASSAYED_SYSTEM: human TAS2R4 (Homo sapiens)
- Construct: expressed in transfected cells; host or cells: HEK293T-Gα16gust44
- Sequence (Q9NYW5 whole entry): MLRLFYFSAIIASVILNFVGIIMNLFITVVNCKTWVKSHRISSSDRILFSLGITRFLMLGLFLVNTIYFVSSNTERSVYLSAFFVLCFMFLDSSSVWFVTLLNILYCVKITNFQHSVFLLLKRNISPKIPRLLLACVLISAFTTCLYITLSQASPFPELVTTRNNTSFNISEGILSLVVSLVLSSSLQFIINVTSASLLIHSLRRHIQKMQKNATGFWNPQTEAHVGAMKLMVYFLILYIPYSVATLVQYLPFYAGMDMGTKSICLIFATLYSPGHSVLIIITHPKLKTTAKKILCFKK
- MEASUREMENT_DESCRIPTION: Calcium imaging assay (FLIPR), HEK293T-Gα16gust44 cells transfected with human TAS2R4; note: test concentration or dose not given here
- Assay type: cell-based
- CONDITION: Time (s) 233.547
hey, just use yes (1) if measured RLU, fluorescence trace is less than 300 RLU, otherwise no (0)

Enquiry: Problem: For the compound C[C@H](CCC(=O)NCCS(=O)(=O)O)[C@H]1CC[C@H]2[C@@H]3[C@H](O)C[C@@H]4C[C@H](O)CC[C@]4(C)[C@H]3C[C@H](O)[C@]12C [Taurocholic Acid, taurocholic acid] , is RLU, fluorescence trace under 300 RLU?
Return: yes (1)

Enquiry: Problem: For the compound C[C@H](CCC(=O)NCCS(=O)(=O)O)[C@H]1CC[C@H]2[C@@H]3CC[C@@H]4C[C@H](O)CC[C@]4(C)[C@H]3CC[C@]12C [Taurolithocholic Acid, taurolithocholic acid] , is RLU, fluorescence trace under 300 RLU?
Return: yes (1)

Enquiry: Problem: For the compound C[C@H](CCC(=O)NCC(=O)O)[C@H]1CC[C@H]2[C@@H]3[C@H](O)C[C@@H]4C[C@H](O)CC[C@]4(C)[C@H]3C[C@H](O)[C@]12C [Glycocholic Acid, glycocholic acid] , is RLU, fluorescence trace under 300 RLU?
Return: yes (1)

Enquiry: Problem: For the compound C[C@H](CCC(=O)O)[C@H]1CC[C@H]2[C@@H]3[C@@H](O)C[C@@H]4C[C@H](O)CC[C@]4(C)[C@H]3CC[C@]12C [Ursodeoxycholic Acid, ursodeoxycholic acid] , is RLU, fluorescence trace under 300 RLU?
Return: yes (1)

Enquiry: Problem: For the compound C[C@H](CCC(=O)O)[C@H]1CC[C@H]2[C@@H]3CC[C@@H]4C[C@H](O)CC[C@]4(C)[C@H]3C[C@H](O)[C@]12C [Deoxycholic Acid, deoxycholic acid] , is RLU, fluorescence trace under 300 RLU?
Return: no (0)

###

- ASSAYED_SYSTEM: mouse Tas2r144 (Mus musculus)
- Construct: expressed in transfected cells; host or cells: HEK293T-Gα16gust44
- Sequence (Q7TQB8 whole entry): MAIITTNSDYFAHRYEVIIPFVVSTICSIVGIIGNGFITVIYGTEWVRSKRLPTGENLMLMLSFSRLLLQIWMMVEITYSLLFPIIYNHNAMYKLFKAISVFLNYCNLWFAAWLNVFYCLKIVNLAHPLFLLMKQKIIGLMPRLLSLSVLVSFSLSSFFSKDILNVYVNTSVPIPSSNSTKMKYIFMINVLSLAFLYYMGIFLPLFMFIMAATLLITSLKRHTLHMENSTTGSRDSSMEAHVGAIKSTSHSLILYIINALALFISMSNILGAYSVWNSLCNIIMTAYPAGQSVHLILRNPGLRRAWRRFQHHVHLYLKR
- MEASUREMENT_DESCRIPTION: Calcium imaging assay (FLIPR), HEK293T-Gα16gust44 cells transfected with mouse Tas2r144
- Assay type: cell-based
- CONDITION: Time 102.781 s
PARAMETER: RLU (RLU)
Write the value in RLU as a bare number.

Enquiry: Please give the measured RLU for this compound: C[C@H](CCC(=O)NCCS(=O)(=O)O)[C@H]1CC[C@H]2[C@@H]3CC[C@@H]4C[C@H](O)CC[C@]4(C)[C@H]3CC[C@]12C
Return: 378.133

Enquiry: Please give the measured RLU for this compound: C[C@H](CCC(=O)NCC(=O)O)[C@H]1CC[C@H]2[C@@H]3[C@H](O)C[C@@H]4C[C@H](O)CC[C@]4(C)[C@H]3C[C@H](O)[C@]12C
Return: 368.041

Enquiry: Please give the measured RLU for this compound: C[C@H](CCC(=O)NCCS(=O)(=O)O)[C@H]1CC[C@H]2[C@@H]3[C@H](O)C[C@@H]4C[C@H](O)CC[C@]4(C)[C@H]3C[C@H](O)[C@]12C
Return: 541.47

Enquiry: Please give the measured RLU for this compound: C[C@H](CCC(=O)O)[C@H]1CC[C@H]2[C@@H]3[C@H](O)C[C@@H]4C[C@H](O)CC[C@]4(C)[C@H]3C[C@H](O)[C@]12C
Return: 509.746
